Biological target: PTRGER4 (EP4) (Homo sapiens (Human), UniProt P35408)
Sequence (P35408 whole entry, looked up): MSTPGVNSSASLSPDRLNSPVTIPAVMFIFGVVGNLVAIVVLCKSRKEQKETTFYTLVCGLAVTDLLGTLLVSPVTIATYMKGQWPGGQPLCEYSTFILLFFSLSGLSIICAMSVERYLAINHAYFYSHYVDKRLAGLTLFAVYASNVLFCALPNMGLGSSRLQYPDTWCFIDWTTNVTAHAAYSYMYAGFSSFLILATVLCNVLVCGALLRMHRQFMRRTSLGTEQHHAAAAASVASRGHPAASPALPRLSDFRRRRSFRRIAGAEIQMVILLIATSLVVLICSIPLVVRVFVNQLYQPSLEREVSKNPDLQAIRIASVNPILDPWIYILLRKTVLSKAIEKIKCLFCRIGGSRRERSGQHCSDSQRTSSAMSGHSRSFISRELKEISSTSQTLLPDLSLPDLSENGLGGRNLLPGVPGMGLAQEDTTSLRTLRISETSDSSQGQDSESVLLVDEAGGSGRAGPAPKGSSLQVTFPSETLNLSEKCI
Assay: hEP4 b-arrestin assay (PathHunter HEK 293 PTGER4 b-arrestin cells)
Type: cell-based
Details: antagonistic activity on hEP4; mean where measured multiple times
readoutLabel: pIC50
Give bare numbers, as −log10 of the molar value.

For orientation, consider the following solved cases.
> print(dat)
                          compoundstructure  recordedmeasurement
1  COc1cccc2c1cc(C)n2CCNc1cc(-c2ccc(-c3ncc[nH]3)cc2)ncn1                 6.19
2  CCOc1cc(-c2cc(NCCn3c(C)cc4c(Cl)ccc(F)c43)ncn2)sc1C(=O)O                 8.00
3  Cc1ccc(C)c2c1cc(C)n2CCNc1cc(-c2ccc(C(=O)O)c(CC(C)C)c2)ncn1                 6.24

For each entry beneath this line, provide reported pIC50.
1. COc1ccc(F)c2c1cc(C)n2CCNc1cc(-c2ccc(C3(N)CC3)cc2)ncn1
2. COc1ccc(F)c2c1cc(C)n2CCNc1cc(-c2ccc(-c3noc(C)n3)cc2)ncn1
3. COc1cc(F)cc2c1cc(C)n2CCNc1cc(-c2ccc(-c3noc(=O)[nH]3)cc2)ncn1
4. CCNc1cc(-c2cc(NCCn3c(C)cc4cccc(OC)c43)ncn2)ccc1C(=O)O
5. CCCN1Cc2cc(-c3cc(NCCn4c(C)cc5c(OC)cccc54)ncn3)ccc2C1=O
6. CCNc1cc(-c2cc(NCCn3c(C)cc4c(C)ccc(F)c43)ncn2)ccc1C(=O)O
7. COc1cc(F)cc2c1cc(C)n2CCNc1cc(-c2ccc(N3CCCC3=O)cc2)ncn1

A:
[6.33, 6.49, 7.07, 6.17, 6.57, 7.15, 6.06]

----------
Biological target: PTGER2 (EP2) (Homo sapiens (Human), UniProt P43116)
Sequence (P43116 whole entry): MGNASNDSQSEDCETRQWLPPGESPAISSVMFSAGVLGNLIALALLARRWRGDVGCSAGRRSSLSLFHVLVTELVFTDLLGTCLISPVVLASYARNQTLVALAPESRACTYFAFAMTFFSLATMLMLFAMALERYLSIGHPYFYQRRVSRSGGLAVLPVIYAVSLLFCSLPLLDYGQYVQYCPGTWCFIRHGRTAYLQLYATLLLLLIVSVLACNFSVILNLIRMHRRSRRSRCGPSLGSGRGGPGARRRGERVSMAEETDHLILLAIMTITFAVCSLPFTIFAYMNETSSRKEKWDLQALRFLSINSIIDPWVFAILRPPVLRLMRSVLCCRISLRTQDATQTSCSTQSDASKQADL
Assay: hEP2 b-arrestin assay (PathHunter HEK 293 PTGER2 b-arrestin cells)
Type: cell-based
Conditions: hEP2 b-arrestin assay (values without asterisk)
Method: The assay is using the PathHunter™ HEK 293 PTGER2 and PTGER4 b-arrestin cell lines from DiscoverX. The system is based on the Enzyme Fragment Complementation Technology. […] Twelve μl of reagent are transferred to the assay plate and incubate for 1 hour at room temperature in the dark. Luminescence counts are read on a BMG Fluostar Optima reader according to manufacturer's instructions. […] (each concentration is measured in duplicate)
readoutLabel: IC50 (nM)
Numbers only, in nM.

// for each compound below, give its IC50
1. CCOc1cc(-c2cc(NCCn3c(C)cc4c(Cl)c(F)cc(Cl)c43)ncn2)sc1C(=O)O [Example 883]
2. COc1ccc(F)c2c1cc(C)n2CCNc1cc(-c2ccc(-c3csc(O)n3)cc2)ncn1 [Example 798]
3. COc1ccc(F)c2c1cc(C#N)n2CCNc1cc(-c2ccc(C(O)(O)C(F)(F)F)cc2)ncn1 [Example 1018]

A:
7
28
94

Q: Entry under review: CCOc1cc(-c2cc(NCCn3c(C)cc4c(OC)ccc(F)c43)ncn2)ccc1NCC(=O)OC [Example 1042] . Reported IC50?
A: 11

----------
Molecular target: EP4 (Homo sapiens (Human), UniProt P35408)
Sequence (P35408 whole entry): as the sequence (P35408 whole entry, looked up) above
Test: hEP4 cAMP assay (BT549 breast cancer cells, HTRF cAMP)
Assay type: cell-based
Conditions: antagonistic activity; mean values where measured multiple times
Please provide measured IC50 for the entries that follow.
Give bare numbers, in µM.

Recorded IC50, per entry:
> print(dat)
                                   molecule  units  recordedmeasurement
1  CCOc1cc(-c2cc(NCCn3c(C)cc4cc(C)cc(F)c43)ncn2)cc(F)c1C(=O)O [compound 436]     µM                0.787
2  Cc1nc(CCC(=O)O)oc1-c1ccc(-c2cc(NCCn3c(C)cc4c(C)cc(F)c(F)c43)ncn2)cc1 [compound 653]     µM                0.527
3  CCc1cc(-c2cc(NCCn3c(C)cc4c(OC)ccc(F)c43)ncn2)cc(F)c1C(=O)O [compound 437]     µM                0.201

Please look at the following molecule next.
Q: # IC50 lookup, item COc1cc(F)cc2c1cc(C)n2CCNc1cc(-c2ccc(-c3nc(C)c(C)s3)cc2)ncn1 [Example 760]
A: 0.795
